targetOrSystem: human CB2 receptor (Homo sapiens)
Construct: host or cells: CHO-K1 (Chinese hamster ovary) cells, stably transfected; membranes prepared in house
Sequence (P34972 whole entry): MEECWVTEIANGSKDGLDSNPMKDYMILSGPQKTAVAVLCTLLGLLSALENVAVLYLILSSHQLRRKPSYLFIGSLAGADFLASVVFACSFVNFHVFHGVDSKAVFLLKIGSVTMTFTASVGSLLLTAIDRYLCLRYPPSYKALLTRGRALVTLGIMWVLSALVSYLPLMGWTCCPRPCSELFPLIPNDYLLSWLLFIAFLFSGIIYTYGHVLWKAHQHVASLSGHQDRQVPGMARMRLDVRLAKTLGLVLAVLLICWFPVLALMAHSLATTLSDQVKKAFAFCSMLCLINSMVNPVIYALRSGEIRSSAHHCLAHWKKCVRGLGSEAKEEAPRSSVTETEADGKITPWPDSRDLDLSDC
measurementNotes: CB2 radioligand ([3H]CP 55,940) competitive binding assay
runParameters: [3H]CP 55,940 displacement, membranes of CHO-K1 cells expressing human CB2 receptor; read-out: CB2 IC50
pIC50: −log10 of the molar value.
Listing of recorded pIC50 by entry.

input: Please give the documented pIC50 of C=C(C)[C@@H]1CCC(C)=C[C@H]1c1c(O)cc(CCCCC)c2c1OC(C)(C)OC2=O
output: 4.70 to 5.00

input: Determine its reported pIC50: CCCCCc1cc(O)c(-c2cccc(C)c2)c2c1C(=O)OC(C)(C)O2
output: 5.00 to 6.00

input: Quick one: give measured pIC50 for C=C(C)[C@@H]1CCC(C)=C[C@H]1c1c(O)cc(CCC)c2c1OCOC2=O [Compound 23d]
output: 5.00 to 6.00

input: Supply pIC50 value. Item: CCCCCc1cc(O)c(C2C=C(C)CCC2)c2c1C(=O)OCO2 (stereo not drawn)
output: 5.00 to 6.00
